Species on record: Rattus norvegicus
Assay: Open TG-GATES - Regimen: Daily Repeat
Type: toxicity, organism-based, Sprague-Dawley
Design: regimen Daily Repeat, gender Male, age 6 weeks
Settings: in vivo, po, 0 mg/kg, […], tissue Plasma, route gavage, dose level Control, time 7 day
Measure name: BUN (mg/dL)
Dear colleague, please return just the value in mg/dL, with no unit written.

{"Compound": "Nc1c2c(nc3ccccc13)CCCC2", "Val": 16.8}

// query BUN value for entry `CN/C(=N/CCSCc1nc[nH]c1C)NC#N`
16.6

Another: `CCOc1ccc(NC(C)=O)cc1`
15

And what about the compound CN(C)CCC(c1ccc(Cl)cc1)c1ccccn1 (stereo unspecified) ?
15.4

Also `COC(=O)C1=C(C)NC(C)=C(C(=O)OC)C1c1ccccc1[N+](=O)[O-]` , if possible.
15.4

Query CN1C(=O)CCS(=O)(=O)C1c1ccc(Cl)cc1 (stereo unspecified) next
16.6

Param item: `CC(C)NNC(=O)c1ccncc1`
19.2

Now the same for `CCCc1cc(=O)[nH]c(=S)[nH]1`
20.8

Please answer likewise for `CNC(=C[N+](=O)[O-])NCCSCc1ccc(CN(C)C)o1`
15.4

Likewise for NC1=NC(=O)C(c2ccccc2)O1 (stereo unspecified) ?
15.4

Quick one: `Brc1ccccc1`
14.8

---

Species: Rattus norvegicus
Experiment: Open TG-GATES - Regimen: Daily Repeat
Type: toxicity, organism-based, Sprague-Dawley
Set-up: regimen Daily Repeat, gender Male, age 6 weeks
Details: in vivo, po, 1000 mg/kg, […], tissue Kidney, route gavage, dose level High, time 7 day
Measure name: KIDNEY_L (g)
Reply numerically in g, unit not repeated.

{"Molecular string": "Cc1nnc2n1-c1ccc(Cl)cc1C(c1ccccc1Cl)=NC2", "KIDNEY_L [g]": 1.1}

# query: KIDNEY_L of entry `CNC(=C[N+](=O)[O-])NCCSCc1ccc(CN(C)C)o1`
1.1

Thanks! And `O=C(OC[C@H]1O[C@@H](OC(=O)c2cc(O)c(O)c(OC(=O)c3cc(O)c(O)c(O)c3)c2)[C@H](OC(=O)c2cc(O)c(O)c(OC(=O)c3cc(O)c(O)c(O)c3)c2)[C@@H](OC(=O)c2cc(O)c(O)c(OC(=O)c3cc(O)c(O)c(O)c3)c2)[C@@H]1OC(=O)c1cc(O)c(O)c(OC(=O)c2cc(O)c(O)c(O)c2)c1)c1cc(O)c(O)c(OC(=O)c2cc(O)c(O)c(O)c2)c1` ?
1.1

Then what about the molecule `CCOc1ccc(NC(C)=O)cc1` ?
1.1

// query: `COC(=O)C1=C(C)NC(C)=C(C(=O)OC)C1c1ccccc1[N+](=O)[O-]`
1

And the next one, `CN/C(=N/CCSCc1nc[nH]c1C)NC#N` ?
1.1

---

Species: Rattus norvegicus
Assay: Open TG-GATES - Regimen: Single
Type: toxicity, organism-based, Sprague-Dawley
Parameters: regimen Single, gender Male, age 6 weeks
Conditions: in vivo, po, 0 mg/kg, 9 h, tissue Blood, route gavage, dose level Control
Measure name: WBC

Worked cases, WBC given:
{"Compound": "CN1C(=O)CCS(=O)(=O)C1c1ccc(Cl)cc1 (centres undefined)", "Val": "79.8 x10_2/uL"}
{"Compound": "CNC(=C[N+](=O)[O-])NCCSCc1ccc(CN(C)C)o1", "Val": "71.4 x10_2/uL"}

Fill blank: measured WBC of the compound `CCOc1ccc(NC(C)=O)cc1` is ____.
81.1 x10_2/uL

Note, next up: `CC(C)NNC(=O)c1ccncc1`
86.5 x10_2/uL

Then what about the compound `CCCc1cc(=O)[nH]c(=S)[nH]1` ?
95.1 x10_2/uL

And the next one, `Brc1ccccc1` ?
75.5 x10_2/uL

# iterate: `CN/C(=N/CCSCc1nc[nH]c1C)NC#N`
93 x10_2/uL

How about this compound: NC1=NC(=O)C(c2ccccc2)O1 (centres undefined)
89 x10_2/uL

---

Known Plat of a selection of compounds
Organism: Rattus norvegicus
Assay: Open TG-GATES - Regimen: Daily Repeat
Type: toxicity, organism-based, Sprague-Dawley
Design: regimen Daily Repeat, gender Male, age 6 weeks
Conditions: in vivo, po, 100 mg/kg, […], tissue Blood, route gavage, dose level Low, time 28 day
# value in x10_4/uL; strip the unit string

{"Molecular string": "CN/C(=N/CCSCc1nc[nH]c1C)NC#N", "Measure name": "Plat", "Val": 114}
{"Molecular string": "O=C(OC[C@H]1O[C@@H](OC(=O)c2cc(O)c(O)c(OC(=O)c3cc(O)c(O)c(O)c3)c2)[C@H](OC(=O)c2cc(O)c(O)c(OC(=O)c3cc(O)c(O)c(O)c3)c2)[C@@H](OC(=O)c2cc(O)c(O)c(OC(=O)c3cc(O)c(O)c(O)c3)c2)[C@@H]1OC(=O)c1cc(O)c(O)c(OC(=O)c2cc(O)c(O)c(O)c2)c1)c1cc(O)c(O)c(OC(=O)c2cc(O)c(O)c(O)c2)c1", "Measure name": "Plat", "Val": 116.4}
{"Molecular string": "CNC(=C[N+](=O)[O-])NCCSCc1ccc(CN(C)C)o1", "Measure name": "Plat", "Val": 103.7}
{"Molecular string": "Cc1nnc2n1-c1ccc(Cl)cc1C(c1ccccc1Cl)=NC2", "Measure name": "Plat", "Val": 110.7}
{"Molecular string": "CCOc1ccc(NC(C)=O)cc1", "Measure name": "Plat", "Val": 122.4}

// switching to the query compound
Requested field: Plat. Item: `COC(=O)C1=C(C)NC(C)=C(C(=O)OC)C1c1ccccc1[N+](=O)[O-]`
130.7

---

Species on record: Rattus norvegicus
Test: Open TG-GATES - Regimen: Single
Format: toxicity, organism-based, Sprague-Dawley
Set-up: regimen Single, gender Male, age 6 weeks
Details: in vivo, po, 100 mg/kg, 9 h, tissue Blood, route gavage, dose level Low
Measure name: RBC
Number first, unit second: that is the form wanted.

In the examples that follow, each entry is paired with its recorded RBC.
{"Molecular string": "Cc1nnc2n1-c1ccc(Cl)cc1C(c1ccccc1Cl)=NC2", "Measure name": "RBC", "Val": "651.2 x10_4/ul"}
{"Molecular string": "COC(=O)C1=C(C)NC(C)=C(C(=O)OC)C1c1ccccc1[N+](=O)[O-]", "Measure name": "RBC", "Val": "610.8 x10_4/ul"}
{"Molecular string": "O=C(OC[C@H]1O[C@@H](OC(=O)c2cc(O)c(O)c(OC(=O)c3cc(O)c(O)c(O)c3)c2)[C@H](OC(=O)c2cc(O)c(O)c(OC(=O)c3cc(O)c(O)c(O)c3)c2)[C@@H](OC(=O)c2cc(O)c(O)c(OC(=O)c3cc(O)c(O)c(O)c3)c2)[C@@H]1OC(=O)c1cc(O)c(O)c(OC(=O)c2cc(O)c(O)c(O)c2)c1)c1cc(O)c(O)c(OC(=O)c2cc(O)c(O)c(O)c2)c1", "Measure name": "RBC", "Val": "591.6 x10_4/ul"}
{"Molecular string": "CNC(=C[N+](=O)[O-])NCCSCc1ccc(CN(C)C)o1", "Measure name": "RBC", "Val": "596.2 x10_4/ul"}

Now examine the next entry.
# get_value(readout='RBC', item= `CN/C(=N/CCSCc1nc[nH]c1C)NC#N` )
575.2 x10_4/ul

---

Species: Rattus norvegicus
Assay: Open TG-GATES - Regimen: Daily Repeat
Type: toxicity, organism-based, Sprague-Dawley
Set-up: regimen Daily Repeat, gender Male, age 6 weeks
Settings: in vivo, po, 1000 mg/kg, 72 h, tissue Kidney, route gavage, dose level High, time 3 day
Measure name: KIDNEY_TOTAL

# example entries with known answers
{"Molecular string": "COC(=O)C1=C(C)NC(C)=C(C(=O)OC)C1c1ccccc1[N+](=O)[O-]", "Measure name": "KIDNEY_TOTAL", "Val": "1.7 g"}
{"Molecular string": "CCOc1ccc(NC(C)=O)cc1", "Measure name": "KIDNEY_TOTAL", "Val": "1.9 g"}
{"Molecular string": "CN/C(=N/CCSCc1nc[nH]c1C)NC#N", "Measure name": "KIDNEY_TOTAL", "Val": "2 g"}
{"Molecular string": "O=C(OC[C@H]1O[C@@H](OC(=O)c2cc(O)c(O)c(OC(=O)c3cc(O)c(O)c(O)c3)c2)[C@H](OC(=O)c2cc(O)c(O)c(OC(=O)c3cc(O)c(O)c(O)c3)c2)[C@@H](OC(=O)c2cc(O)c(O)c(OC(=O)c3cc(O)c(O)c(O)c3)c2)[C@@H]1OC(=O)c1cc(O)c(O)c(OC(=O)c2cc(O)c(O)c(O)c2)c1)c1cc(O)c(O)c(OC(=O)c2cc(O)c(O)c(O)c2)c1", "Measure name": "KIDNEY_TOTAL", "Val": "1.9 g"}
{"Molecular string": "CNC(=C[N+](=O)[O-])NCCSCc1ccc(CN(C)C)o1", "Measure name": "KIDNEY_TOTAL", "Val": "2 g"}

Consider the record given below.
KIDNEY_TOTAL for `Cc1nnc2n1-c1ccc(Cl)cc1C(c1ccccc1Cl)=NC2` ?
1.9 g
